Where do these numbers come from? They come from PubChem BioAssay (NCATS).

# tested_system: Phospholipid hydroperoxide glutathione peroxidase GPX4 (Homo sapiens)
# protocol_notes: Primary qHTS Assay for Inhibitors of Recombinant Selenoprotein Glutathione Peroxidase 4 (GPX4) (AID 1845192); note: nearly all actives have a fitted effect of over 65% in size
# measurement_context: recombinant GPX4, GR-coupled NADPH fluorescence, 15 min; series mostly up to 50 µM
Results filed as inconclusive are left out. The source made the active and inactive calls. Calls come from the whole dose curve; as a rule, active = well fitted inhibition curve with a large enough effect; inconclusive = small, poorly fitted or top-dose-only effect; inactive = flat fitted curve, though single readings scatter.
// classify into active, inactive

Solved entries:
compound	discrete_label
CCCCCCCCCCCCCCCC(=O)OC(CC(=O)O)C[N+](C)(C)C (centres undefined)	inactive
O=C(O)c1cc(=O)c2c(Cl)cc(Cl)cc2[nH]1	inactive
CCOC(=O)N1CCN(/[N+]([O-])=N/Oc2ccc([N+](=O)[O-])cc2[N+](=O)[O-])CC1	inactive

State the result this test recorded for O=c1[nH]c2cc([N+](=O)[O-])c([N+](=O)[O-])cc2[nH]c1=O .
inactive

Cool, now O=C1NC(=O)/C(=C/c2ccc(-c3ccc(F)cc3O)o2)S1
inactive

====

# Test system: CP217
# protocol_notes: qHTS profiling for inhibitors of Plasmodium falciparum proliferation (AID 504749); note: nearly all actives have a fitted effect of over 60% in size
# measurement_context: P. falciparum in erythrocytes, SYBR Green DNA, 72 h; series mostly up to 28.7 µM
Results filed as inconclusive are left out. Calls of active or inactive are those of the source. Calls follow the shape of the dose curve; as a rule, active = well fitted inhibition curve with a large enough effect; inconclusive = small, poorly fitted or top-dose-only effect; inactive = flat fitted curve, though single readings scatter.
// classify into class 1 = active, class 0 = inactive

Solved entries:
compound	discrete_label
[O-][n+]1ccccc1SSc1cccc[n+]1[O-]	class 1
CC1(C)[C@@H](O)CC[C@]2(C)[C@H]3C(=O)C=C4[C@@H]5C[C@@](C)(C(=O)O)CC[C@]5(C)CC[C@@]4(C)[C@]3(C)CC[C@@H]12	class 0
Clc1ccccc1-c1nc(-c2ccncc2)no1	class 0
O=C(O)[C@H](O)[C@@H](O)[C@H](O)[C@H](O)CO	class 0
CCOC(=O)c1ccccc1O	class 0
CCCCCC[C@@H](O)C/C=C\CCCCCCCC(=O)O	class 0
O=C(OCc1ccccc1)c1ccccc1	class 0
O=C(O)c1ccccc1Nc1cccc(C(F)(F)F)c1	class 0

State the result this test recorded for O=C(O)[C@H](CC(=O)N1C[C@H]2CCCC[C@H]2C1)Cc1ccccc1 .
class 0

====

# System: CP250
# protocol_notes: qHTS profiling for inhibitors of Plasmodium falciparum proliferation (AID 504749); note: nearly all actives have a fitted effect of over 60% in size
# measurement_context: P. falciparum in erythrocytes, SYBR Green DNA, 72 h; series mostly up to 28.7 µM
Results filed as inconclusive are left out. The source made the active and inactive calls. Calls follow the shape of the dose curve; as a rule, active = well fitted inhibition curve with a large enough effect; inconclusive = small, poorly fitted or top-dose-only effect; inactive = flat fitted curve, though single readings scatter.
endpoint: outcome

Worked cases, answers included:
compound	result
CC(N)C(=O)OC(C)(C)Cc1ccc(Cl)cc1 (centres undefined)	inactive
O=C(O)COc1ccc(C(=O)c2cccs2)c(Cl)c1Cl	inactive
CCCCCC[C@@H](O)C/C=C\CCCCCCCC(=O)O	inactive
Cc1ccc(O)c(-n2nc3ccccc3n2)c1	inactive
COc1ccc(/C=C/C(=O)Nc2ccccc2C(=O)O)cc1OC	inactive
CN1[C@@H]2CC[C@H]1CC(OC(c1ccccc1)c1ccccc1)C2 (some centres undefined)	inactive

Item O=C(O)Cc1ccc(-c2ccccc2)cc1 has what recorded outcome?
inactive

Cool, now Cc1c(Nc2ncccc2C(=O)O)cccc1C(F)(F)F
inactive

Cool, now Nc1ccc(C(=O)O)c(O)c1
inactive

====

# protocol_notes: Primary qHTS for small molecule stabilizers of the endoplasmic reticulum resident proteome: Secreted ER Calcium Modulated Protein (SERCaMP) assay (AID 1508630)
# measurement_context: SH-SY5Y GLuc-SERCaMP (Gaussia luciferase released on ER calcium loss) secretion, thapsigargin, luminescence; series mostly up to 38.4 µM
Results filed as inconclusive are left out. Activity calls are given as the source filed them. Calls follow the shape of the dose curve; as a rule, active = well fitted inhibition curve with a large enough effect; inconclusive = small, poorly fitted or top-dose-only effect; inactive = no such curve, though single readings can be large or run the other way.
// classify into active, inactive

Solved entries:
molecule	discrete_label
CCN(CC)c1ncnc2c1ncn2[C@@H]1O[C@H](COP(=O)(O)OP(=O)(O)C(Br)(Br)P(=O)(O)O)[C@@H](O)[C@H]1O	inactive
Cc1cc(NC(=O)Nc2ccc3c(ccn3C)c2)sn1	inactive
CCCCN1CCC(n2c(=O)[nH]c3ccccc32)CC1	inactive
CCc1c(C(=O)NCCc2ccc(N3CCCCC3)cc2)[nH]c2ccc(Cl)cc12	inactive

State the result this test recorded for c1ccc(-c2ccccn2)nc1 .
inactive

Cool, now CCCCCCOc1ccccc1C(N)=O
inactive

Cool, now COc1cc(C(O)CO)ccc1OS(=O)(=O)O (centres undefined)
inactive

Cool, now O=C(O)/C=C/C(O)c1ccc(Cl)cc1 (centres undefined)
inactive

Cool, now O=C(O)c1cc(=O)c2ccccc2[nH]1
inactive

Cool, now Clc1ccc(N2CCN(Cc3cc4ccccn4n3)CC2)cc1
inactive

====

# tested_system: Luciferin 4-monooxygenase (Photinus pyralis)
# protocol_notes: Biochemical firefly luciferase enzyme assay for NPC (AID 624030);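 note: purified P. pyralis luciferase at 10 nM with luciferin and ATP substrate; 0% = DMSO and -100% = full luciferase inhibition by PTC124 control; nearly all actives have a fitted effect of over 70% in size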
# measurement_context: purified P. pyralis luciferase, luminescence, 5 min; series mostly up to 58.6 µM
Inconclusive results are not listed. Calls of active or inactive are those of the source. Calls come from the whole dose curve; as a rule, active = well fitted inhibition curve with a large enough effect; inconclusive = small, poorly fitted or top-dose-only effect; inactive = flat fitted curve, though single readings scatter.
// classify into true (active), false (inactive)

Solved entries:
molecule	tested_system	discrete_label
CCCCCCCCCCCCCCCCCC(=O)O	Luciferin 4-monooxygenase (Photinus pyralis)	false
NCCO	Luciferin 4-monooxygenase (Photinus pyralis)	false
C=C(Nc1ccc(OCC)cc1)Nc1ccc(OCC)cc1	Luciferin 4-monooxygenase (Photinus pyralis)	false
C=CCCCCCCCCC(=O)O	Luciferin 4-monooxygenase (Photinus pyralis)	false
N=c1ccn2c(n1)O[C@H]1[C@H](O)[C@@H](CO)O[C@H]12	Luciferin 4-monooxygenase (Photinus pyralis)	false
O=C(O)[C@H](O)[C@@H](O)[C@H](O)[C@H](O)CO	Luciferin 4-monooxygenase (Photinus pyralis)	false
O=c1[nH]c2ccccc2n1CCCN1CCN(C(c2ccccc2)c2ccccc2)CC1	Luciferin 4-monooxygenase (Photinus pyralis)	false
O=C(O)COc1ccc(C(=O)c2cccs2)c(Cl)c1Cl	Luciferin 4-monooxygenase (Photinus pyralis)	false

State the result this test recorded for Nc1ccc(C(=O)O)c(O)c1 .
false

Cool, now O=C(O)/C=C/C(O)c1ccc(Cl)cc1 (stereo not given)
false

====

# tested_system: DNA repair nuclease/redox regulator APEX1 (Homo sapiens) (UniProt P27695)
# Sequence (P27695 whole entry, looked up): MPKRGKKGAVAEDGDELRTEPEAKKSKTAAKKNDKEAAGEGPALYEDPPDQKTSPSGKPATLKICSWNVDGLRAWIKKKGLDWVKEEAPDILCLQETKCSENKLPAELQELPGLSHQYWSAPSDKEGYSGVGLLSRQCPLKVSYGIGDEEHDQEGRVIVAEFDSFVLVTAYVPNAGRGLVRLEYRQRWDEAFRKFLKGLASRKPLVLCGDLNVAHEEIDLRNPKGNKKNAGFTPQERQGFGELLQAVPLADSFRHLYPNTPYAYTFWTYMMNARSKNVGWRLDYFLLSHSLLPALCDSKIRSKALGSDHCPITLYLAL
# protocol_notes: qHTS Validation Assay for Inhibitors of the Human Apurinic/apyrimidinic Endonuclease 1 (APE1) (AID 1705;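 note: TAMRA fluorescence gain over two minutes as APE1 cuts a quenched THF abasic duplex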)
# measurement_context: purified APE1 endonuclease activity, fluorescence, titration; series mostly up to 57.1 µM
Results filed as inconclusive are left out. Activity calls are given as the source filed them. The call rests on the fitted dose curve; in most records, active means well fitted inhibition curve with a large enough effect; inconclusive means small, poorly fitted or top-dose-only effect; inactive means flat fitted curve, though single readings scatter.
// classify into 1.0 for active, 0.0 for inactive

Solved entries:
compound	tested_system	discrete_label
COc1cc(OC)c(/C=C2/C(=O)Nc3ccccc32)c(OC)c1	DNA repair nuclease/redox regulator APEX1 (Homo sapiens) (UniProt P27695)	0.0
Fc1cccc(/C=N/N=C/c2cccc(F)c2)c1	DNA repair nuclease/redox regulator APEX1 (Homo sapiens) (UniProt P27695)	0.0
Cc1cc(NC(=O)Nc2ccc3c(ccn3C)c2)sn1	DNA repair nuclease/redox regulator APEX1 (Homo sapiens) (UniProt P27695)	0.0

State the result this test recorded for CN(C)c1ccc(/C=C2\C(=O)Nc3ccccc32)cc1 .
0.0

Cool, now COc1cc2c(CCNC(C)=O)c[nH]c2cc1Cl
0.0

Cool, now N#C/C(=C\c1c[nH]c2ccccc12)C(=O)c1ccc(O)c(O)c1
0.0

Cool, now NCCCS(=O)(=O)O
0.0

Cool, now CN=c1nc(-c2ccccc2)n(-c2ccccc2)s1
0.0

Cool, now O=Nc1ccc2oc(=O)ccc2c1
0.0

Cool, now COc1ccccc1N1CCN(CCCCNS(=O)(=O)c2cccc3c(N(C)C)cccc23)CC1
0.0

Cool, now O=C(O)c1cc([N+](=O)[O-])ccc1NCCCc1ccccc1
0.0

====

# tested_system: Glucocorticoid receptor (Homo sapiens)
# protocol_notes: GR-EFC Redistribution (AID 451); note: potency is the fitted concentration of half-maximal effect
# measurement_context: CHO-K1 GR-EFC translocation, beta-gal luminescence, 2 h
Calls of active or inactive are those of the source. Calls come from the whole dose curve.
endpoint: Potency

smiles_repr	tested_system	result
Clc1ccccc1-c1nc(-c2ccncc2)no1	Glucocorticoid receptor (Homo sapiens)	> 9.22 µM (inactive)
O=S(=O)(c1cccc2c(I)cccc12)N1CCCNCC1	Glucocorticoid receptor (Homo sapiens)	> 46 µM (inactive)
c1ccc(-c2ccccn2)nc1	Glucocorticoid receptor (Homo sapiens)	> 46 µM (inactive)
NC(=O)C(=O)O	Glucocorticoid receptor (Homo sapiens)	> 46 µM (inactive)
O=C(O)c1ccccc1Nc1cccc(C(F)(F)F)c1	Glucocorticoid receptor (Homo sapiens)	> 20.6 µM (inactive)
COc1cc2c(CCNC(C)=O)c[nH]c2cc1Cl	Glucocorticoid receptor (Homo sapiens)	> 46 µM (inactive)
CN1CCc2ccccc2Cc2[nH]c3ccccc3c2CC1	Glucocorticoid receptor (Homo sapiens)	> 46 µM (inactive)
CC1(C)CCC=[N+]1[O-]	Glucocorticoid receptor (Homo sapiens)	> 46 µM (inactive)

Item Cc1cc(NC(=O)Nc2ccc3c(ccn3C)c2)sn1 has what recorded Potency?
> 46 µM (inactive)

Cool, now N[C@H](CCCP(=O)(O)O)C(=O)O
> 46 µM (inactive)

Cool, now NCCNC(=O)c1ncsc1-c1cccc(F)c1
> 46 µM (inactive)

Cool, now C[C@@H](CN1CCC(Cc2ccccc2)CC1)[C@@H](O)c1ccc(O)cc1
> 46 µM (inactive)

Cool, now O=c1[nH]c2cc(Cl)c(Cl)cc2[nH]c1=O
> 46 µM (inactive)

Cool, now CCCN(CC1CC1)c1nc(C)nc(Nc2c(Cl)cc(Cl)cc2Cl)c1Cl
> 46 µM (inactive)

Cool, now O=C(O)Cc1ccc(-c2ccccc2)cc1
> 20.6 µM (inactive)
